From: patent US20260374754A1

Each item that follows carries a reported pEC50.
- Tested On: human activated kallikrein enzyme (Homo sapiens, UniProt P03952)
- Sequence (P03952 391-638 limits assumed): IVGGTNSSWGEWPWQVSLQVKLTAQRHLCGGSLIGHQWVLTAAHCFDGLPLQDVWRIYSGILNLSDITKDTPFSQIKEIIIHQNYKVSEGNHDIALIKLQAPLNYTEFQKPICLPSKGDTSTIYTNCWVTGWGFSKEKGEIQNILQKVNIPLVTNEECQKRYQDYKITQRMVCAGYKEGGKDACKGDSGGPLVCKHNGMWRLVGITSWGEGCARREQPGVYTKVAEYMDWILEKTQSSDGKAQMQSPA
- Sequence (P03952 20-390 partner limits assumed): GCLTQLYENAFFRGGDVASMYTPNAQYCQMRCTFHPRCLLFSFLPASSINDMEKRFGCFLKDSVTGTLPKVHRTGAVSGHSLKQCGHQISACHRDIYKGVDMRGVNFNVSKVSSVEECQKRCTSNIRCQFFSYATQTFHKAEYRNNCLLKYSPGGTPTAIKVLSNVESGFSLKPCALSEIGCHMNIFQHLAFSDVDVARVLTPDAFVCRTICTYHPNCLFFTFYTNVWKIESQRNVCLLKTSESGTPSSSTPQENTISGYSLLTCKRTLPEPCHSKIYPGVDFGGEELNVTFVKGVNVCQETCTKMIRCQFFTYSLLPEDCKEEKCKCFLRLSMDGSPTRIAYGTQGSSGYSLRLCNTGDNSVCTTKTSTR
- Procedure Summary: Inhibition of human activated plasma kallikrein, fluorogenic PFR-AMC substrate, 500 pM enzyme format
- Type: biochemical
- Conditions: 500 pM activated kallikrein; 300 μM PFR-AMC; 30 min preincubation; 10 min room temperature; pH 7.5; read-out: Primary Dose Response Assay: Average EC50
- Method: Compounds were evaluated for inhibition of the human activated kallikrein enzyme in two formats of an assay employing a fluorogenic peptide substrate. […] After initiation with substrate, reactions were incubated for 10 min at room temperature and fluorescence emission at 460 nm from 380 nm excitation measured with a microplate reader. […]
pEC50: −log10 of the molar value.

Compound: Cc1cc2c(N)nccc2c(C)c1CNc1cc(OCc2cc3cc(C4CC4)cc(CCC(C)(C)O)n3n2)ncn1 [Example 508]
pEC50: 8.00 to 9.00
--
Compound: COc1ccc2cc(Cn3cc(C(=O)NCc4c(C)cc5c(N)nccc5c4C)cn3)c(Cl)nc2c1 [Example 108]
pEC50: > 9.00
--
Compound: Cc1cc2c(N)nccc2c(C)c1CNc1cc(NCc2ccc3ccccc3n2)ncn1 [Example 306]
pEC50: 7.00 to 8.00
--
Compound: Cc1cc2c(N)nccc2c(C)c1CNC(=O)c1cnn(Cc2ccc(CC(=O)N3C[C@@H]4[C@H](C3)[C@H]4C(=O)O)cc2)c1 [Example 213]
pEC50: 7.00 to 8.00
